The entries below come with measured fraction ligated values attached.
B1: F1*; the commonest letter at each place (parent)
chain: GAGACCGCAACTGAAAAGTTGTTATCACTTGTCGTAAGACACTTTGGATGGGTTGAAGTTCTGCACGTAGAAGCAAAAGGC

Variants of: B1
Experiment: fraction ligated after 30 min (ligated reads / total reads); higher = more ligase activity
Details: with F1*sub RNA substrate (template-directed ligation), 42 °C
reportedProperty: fraction ligated

mutationList | reportedProperty | endpointValue
T29G T44C | fraction ligated | 0.795
A48C G55T | fraction ligated | 0.5
A24C G50C | fraction ligated | 0.532
T25A C28T | fraction ligated | 0.714
G34T A56C | fraction ligated | 0.805
T49C A57T | fraction ligated | 0.3
T29A A56T | fraction ligated | 0.827
G34A C42T | fraction ligated | 0.865
A37T T44G | fraction ligated | 0.825
A36T A37T | fraction ligated | 0.851
A24G A37G | fraction ligated | 0.852
A39C A57C | fraction ligated | 0.827
A27G T35G | fraction ligated | 0.839
C28T C42G | fraction ligated | 0.813
